Test system: Male spontaneously hypertensive rats (SHR), arterial blood pressure
Assay: Depressor response after intraduodenal administration (1 mg/kg), Table 2
Format: in vivo, rat
property.name: ΔBP (Maximum depressor response)

See these solved cases before continuing.
molecule: COC(=O)C1=C(C)NC(C)=C(C(=O)OC(C)C=Cc2ccco2)C1c1cccc([N+](=O)[O-])c1 (stereo not shown) [Example 33]
ΔBP (Maximum depressor response): 100 mmHg
--
molecule: COC(=O)C1=C(C)NC(C)=C(C(=O)OCC=CC=Cc2ccccc2)C1c1cccc([N+](=O)[O-])c1 (stereo not shown) [Example 16]
ΔBP (Maximum depressor response): 45 mmHg
--
molecule: COC(=O)C1=C(C)NC(C)=C(C(=O)OCC=Cc2ccco2)C1c1cccc([N+](=O)[O-])c1 (stereo not shown) [Example 7]
ΔBP (Maximum depressor response): 20 mmHg
--
molecule: COC(=O)C1=C(C)NC(C)=C(C(=O)OC(C)C=Cc2ccccc2)C1c1cccc([N+](=O)[O-])c1 (stereo not shown) [Example 30]
ΔBP (Maximum depressor response): 89 mmHg
--
molecule: COC(=O)C1=C(C)NC(C)=C(C(=O)OCCC=Cc2ccc(SC)cc2)C1c1cccc([N+](=O)[O-])c1 (stereo not shown) [Example 24]
ΔBP (Maximum depressor response): 27 mmHg
--
molecule: COC(=O)C1=C(C)NC(C)=C(C(=O)OCC#Cc2ccccc2)C1c1cccc([N+](=O)[O-])c1 (stereo not shown) [Example 55]
ΔBP (Maximum depressor response): 45 mmHg

Next molecule, please.
[Q] Would you mind telling me what ΔBP (Maximum depressor response) value was observed for COC(=O)C1=C(C)NC(C)=C(C(=O)OCCC=Cc2ccccc2)C1c1cccc([N+](=O)[O-])c1 (stereo not shown) [Example 4] ?
[A] 20 mmHg

###

Test system: Male SHR, systolic blood pressure
Test: Systolic blood pressure by tail cuff method, oral administration (3 mg/kg), Table 4
Assay type: in vivo, rat
Settings: conscious SHR, 3 hours
// values below are reported ΔBP After 3 hours

compound: COC(=O)C1=C(C)NC(C)=C(C(=O)OCC#Cc2ccccc2)C1c1cccc([N+](=O)[O-])c1 (stereo not drawn)
measurement.target: Male SHR, systolic blood pressure
property.name: ΔBP After 3 hours
recorded.result: -75 mmHg

compound: CC1=C(C(=O)OCC=Cc2ccccc2)C(c2cccc([N+](=O)[O-])c2)C(C(=O)OCCOc2ccccc2)=C(C)N1 (stereo not drawn)
measurement.target: Male SHR, systolic blood pressure
property.name: ΔBP After 3 hours
recorded.result: -70 mmHg

compound: COC(=O)C1=C(C)NC(C)=C(C(=O)OCC=CC=Cc2ccccc2)C1c1cccc([N+](=O)[O-])c1 (stereo not drawn)
measurement.target: Male SHR, systolic blood pressure
property.name: ΔBP After 3 hours
recorded.result: -60 mmHg

[Q] Would you mind telling me what ΔBP After 3 hours value was observed for CCOC(=O)C1=C(C)NC(C)=C(C(=O)OCC=Cc2ccccc2)C1c1cccc([N+](=O)[O-])c1 (stereo not drawn) ?
[A] -35 mmHg

[Q] Would you mind telling me what ΔBP After 3 hours value was observed for COC(=O)C1=C(C)NC(C)=C(C(=O)OC)C1c1ccccc1[N+](=O)[O-] [A, reference compound] ?
[A] -22.0 mmHg

[Q] Would you mind telling me what ΔBP After 3 hours value was observed for COC(=O)C1=C(C)NC(C)=C(C(=O)OC(C=Cc2ccccc2)c2ccccc2)C1c1cccc([N+](=O)[O-])c1 (stereo not drawn) ?
[A] -113 mmHg

###

Test system: rat (SHR), blood pressure and heart rate
Assay: Depressor response of trans- and cis-forms, dose-response intravenous, Tables 5 and 6
Type: in vivo
Conditions: 30 μg/kg i.v.
Protocol: Male spontaneously hypertensive rats (SHR) which had mean arterial blood pressures higher than 140 mmHg were used for the experiments. Arterial blood pressure was measured through the catherized artery with a pressure transducer (MPU-0.5, manufactured by Nihon Kohden Kabushiki Kaisha). The catheter was inserted into the abdominal aorta via the median coccygcal artery of SHR under light ether anesthesia. The recordings were made on a rectigraph (manufactured by Sanei Sokki Kabushiki Kaisha). […]
property.name: Depressure Response Peak (min)
# unit: min | format: bare number

compound: COC(=O)C1=C(C)NC(C)=C(C(=O)OC/C=C\c2ccccc2)C1c1cccc([N+](=O)[O-])c1 (stereo not shown)
unit.abbreviation: min
recorded.result: 1.3
//
compound: COC(=O)C1=C(C)NC(C)=C(C(=O)OC/C=C/c2ccccc2)C1c1cccc([N+](=O)[O-])c1 (stereo not shown)
unit.abbreviation: min
recorded.result: 1.8
//
compound: COC(=O)C1=C(C)NC(C)=C(C(=O)OCC/C=C/c2ccc3ccccc3c2)C1c1cccc([N+](=O)[O-])c1 (stereo not drawn) [12 (trans)]
unit.abbreviation: min
recorded.result: 4.1

Next compound, please.
[Q] Could you share what Depressure Response Peak was measured for COC(=O)C1=C(C)NC(C)=C(C(=O)OCC/C=C\c2ccc3ccccc3c2)C1c1cccc([N+](=O)[O-])c1 (stereo not shown) , tested on rat (SHR), blood pressure and heart rate?
[A] 2.6

###

Tested on: rat (SHR), blood pressure and heart rate
Test: Depressor response of trans- and cis-forms, dose-response intravenous, Tables 5 and 6
Format: in vivo
Settings: 10 μg/kg i.v.
// values below are reported Depressure Response Peak
# unit: min | format: bare number

See these solved cases before continuing.
compound: COC(=O)C1=C(C)NC(C)=C(C(=O)OCC/C=C\c2ccc3ccccc3c2)C1c1cccc([N+](=O)[O-])c1 (stereo not shown)
Depressure Response Peak [min]: 3.2

compound: COC(=O)C1=C(C)NC(C)=C(C(=O)OC/C=C/c2ccccc2)C1c1cccc([N+](=O)[O-])c1 (stereo not shown)
Depressure Response Peak [min]: 2.0

compound: COC(=O)C1=C(C)NC(C)=C(C(=O)OCC/C=C/c2ccc3ccccc3c2)C1c1cccc([N+](=O)[O-])c1 (stereo not drawn) [12 (trans)]
Depressure Response Peak [min]: 2.8

[Q] Would you mind telling me what Depressure Response Peak value was observed for COC(=O)C1=C(C)NC(C)=C(C(=O)OC/C=C\c2ccccc2)C1c1cccc([N+](=O)[O-])c1 (stereo not shown) ?
[A] 1.2

###

System: Male spontaneously hypertensive rats (SHR), arterial blood pressure
Experiment: Depressor response after intravenous administration (30 μg/kg), Table 1
Format: in vivo, rat
Details: '90<' means greater than 90
property.name: Duration

molecule: COC(=O)C1=C(C)NC(C)=C(C(=O)OCCCC=Cc2ccccc2)C1c1cccc([N+](=O)[O-])c1 (stereo not shown)
Duration: > 90 min
--
molecule: CC=CC=CCOC(=O)C1=C(C)NC(C)=C(C(=O)OCCOC)C1c1cccc([N+](=O)[O-])c1 (stereo not shown)
Duration: > 90 min
--
molecule: CCC(C=Cc1ccccc1)OC(=O)C1=C(C)NC(C)=C(C(=O)OC)C1c1cccc([N+](=O)[O-])c1 (stereo not shown)
Duration: > 240 min

[Q] Could you share what Duration was measured for COC(=O)C1=C(C)NC(C)=C(C(=O)OCCC=Cc2ccc([N+](=O)[O-])cc2)C1c1cccc([N+](=O)[O-])c1 (stereo not shown) , tested on Male spontaneously hypertensive rats (SHR), arterial blood pressure?
[A] > 120 min

[Q] Could you share what Duration was measured for COC(=O)C1=C(C)NC(C)=C(C(=O)OCCC=Cc2ccccc2)C1c1cccc([N+](=O)[O-])c1 (stereo not shown) , tested on Male spontaneously hypertensive rats (SHR), arterial blood pressure?
[A] > 90 min

[Q] Could you share what Duration was measured for CC=CC=CCOC(=O)C1=C(C)NC(C)=C(C(=O)OCC=CC=CC)C1c1cccc([N+](=O)[O-])c1 (stereo not shown) , tested on Male spontaneously hypertensive rats (SHR), arterial blood pressure?
[A] > 120 min

[Q] Could you share what Duration was measured for CCCC(C=Cc1ccccc1)OC(=O)C1=C(C)NC(C)=C(C(=O)OC)C1c1cccc([N+](=O)[O-])c1 (stereo not shown) , tested on Male spontaneously hypertensive rats (SHR), arterial blood pressure?
[A] > 90 min

[Q] Could you share what Duration was measured for COC(=O)C1=C(C)NC(C)=C(C(=O)OC(C=Cc2ccccc2)c2ccccc2)C1c1cccc([N+](=O)[O-])c1 (stereo not shown) , tested on Male spontaneously hypertensive rats (SHR), arterial blood pressure?
[A] > 240 min

[Q] Could you share what Duration was measured for COC(=O)C1=C(C)NC(C)=C(C(=O)OCC(C)=Cc2ccccc2)C1c1cccc([N+](=O)[O-])c1 (stereo not shown) , tested on Male spontaneously hypertensive rats (SHR), arterial blood pressure?
[A] 120 min

[Q] Could you share what Duration was measured for COC(=O)C1=C(C)NC(C)=C(C(=O)OCC=CC=Cc2cccs2)C1c1cccc([N+](=O)[O-])c1 (stereo not shown) , tested on Male spontaneously hypertensive rats (SHR), arterial blood pressure?
[A] > 90 min

[Q] Could you share what Duration was measured for COC(=O)C1=C(C)NC(C)=C(C(=O)OCC=CC=Cc2ccc3ccccc3c2)C1c1cccc([N+](=O)[O-])c1 (stereo not shown) , tested on Male spontaneously hypertensive rats (SHR), arterial blood pressure?
[A] 90 min

[Q] Could you share what Duration was measured for COC(=O)C1=C(C)NC(C)=C(C(=O)OCC=Cc2ccccc2)C1c1ccccc1F (stereo not shown) , tested on Male spontaneously hypertensive rats (SHR), arterial blood pressure?
[A] > 90 min

Where do these numbers come from? They come from patent US4672068A.
